test: Measured lipophilicity of tazarotene; format: physicochemical; details: pH 7.4; value marked measured in Table 3; read-out: log D pH 7.4 (measured)

structure notation: CCOC(=O)c1ccc(C#Cc2ccc3c(c2)C(C)(C)CCS3)nc1
logD: 4.3

----------
Assay: Plasma concentrations after topical and oral dosing of tazarotene
Format: in vivo, patients
Conditions: human, plasma, topical or ocular, 0.1 % gel, plasma; Topical Gel 0.1% 2% BSA; read-out: TAZAROTENIC ACID Cmax
Experimental: […] For the most part tazarotene is not observed in the plasma after topical or oral administration. Facile hydrolysis by pre-systemic metabolism rapidly generates the free acid. […] It is important to note that these are plasma concentrations and the eye plasma distribution ratio is 0.02. Over 90% of all patients in the phase 3 clinical trials had concentrations of the parent compound, tazarotene, <1 ng/mL with the highest being 6 ng/mL. […]
recorded endpoint: Cmax (ng/mL)

compound: CC1(C)CCSc2ccc(C#Cc3ccc(C(=O)O)cn3)cc21 [Tazarotenic Acid]
recorded endpoint: Cmax
unit text: ng/mL
numeric value: 0.241
